molecular target: Acetyl-coenzyme A synthetase, cytoplasmic (Homo sapiens, UniProt Q9NR19); test: Inhibition of ACSS2 in human MDA-MB-468 cells assessed as 13C-acetate incorporation incubated for 5 hrs measured under hypoxic conditions by LCMS analysis
Sequence (Q9NR19 whole entry): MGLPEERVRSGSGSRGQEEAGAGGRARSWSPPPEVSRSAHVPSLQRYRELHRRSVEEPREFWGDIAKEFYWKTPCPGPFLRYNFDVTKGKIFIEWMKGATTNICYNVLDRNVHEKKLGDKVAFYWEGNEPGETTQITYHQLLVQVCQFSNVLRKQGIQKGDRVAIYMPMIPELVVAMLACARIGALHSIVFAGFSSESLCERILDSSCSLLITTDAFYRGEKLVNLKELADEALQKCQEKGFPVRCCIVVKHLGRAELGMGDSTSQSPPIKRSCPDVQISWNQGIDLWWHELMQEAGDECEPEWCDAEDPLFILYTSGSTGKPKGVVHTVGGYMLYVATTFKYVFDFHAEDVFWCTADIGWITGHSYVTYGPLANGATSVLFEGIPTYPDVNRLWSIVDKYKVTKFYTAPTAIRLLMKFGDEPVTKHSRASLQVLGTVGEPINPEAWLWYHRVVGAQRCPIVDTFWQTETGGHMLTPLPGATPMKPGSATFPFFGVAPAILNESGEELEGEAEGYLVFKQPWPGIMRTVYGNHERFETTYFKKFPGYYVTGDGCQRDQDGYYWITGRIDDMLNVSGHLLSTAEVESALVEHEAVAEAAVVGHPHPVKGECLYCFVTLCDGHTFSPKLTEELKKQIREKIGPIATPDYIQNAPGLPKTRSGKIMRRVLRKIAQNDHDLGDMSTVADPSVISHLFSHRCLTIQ
value.type: IC50 (nM)

1. COC(=O)c1cccc(N2N=C(C)C(C(=O)Nc3cccc(-c4ccco4)c3)C2=O)c1 (stereo unspecified)
2.1
2. CC1=NN(c2ccc(OC(F)F)c(-c3cccnc3)c2)C(=O)C1C(=O)Nc1cccc(C(C)(F)F)c1 (stereo unspecified)
0.33
3. COc1ccc(N2N=C(C)C(C(=O)Nc3cccc(C(C)(F)F)c3)C2=O)cc1OC (stereo unspecified)
1

A. COc1ccc(N2N=C(C)C(C(=O)Nc3cccc(-c4ccco4)c3)C2=O)cn1 (stereo unspecified)
B. COc1ccc(N2N=C(C)C(C(=O)Nc3cccc(C(C)(F)F)c3)C2=O)cc1-c1ncco1 (stereo unspecified)
Request: So which one has the bigger IC50 here, A or B ? Reply briefly: the label of your chosen item.
Response: A
(A: 3.9 nM, B: 1.1 nM)

1. COc1ccc(N2N=C(C)C(C(=O)Nc3cccc(C(C)(F)F)c3)C2=O)cc1 (stereo unspecified)
2. CCC(F)(F)c1cccc(NC(=O)C2C(=O)N(c3ccc(OC)cc3)N=C2C)c1 (stereo unspecified)
Request: So which one has the bigger IC50 here, 1 or 2 ? Reply briefly: the label of your chosen item.
Response: 1

A. COc1ccc(N2N=C(C)C(C(=O)Nc3cccc(-c4ccco4)c3)C2=O)cc1 (stereo unspecified)
B. COc1ccc(N2N=C(C)C(C(=O)Nc3cccc(C(C)(F)F)c3)C2=O)cn1 (stereo unspecified)
Request: So which one has the bigger IC50 here, A or B ? Reply briefly: the label of your chosen item.
Response: B

a. CC1=NN(c2ccccc2)C(=O)C1C(=O)Nc1cccc(C(C)(F)F)c1 (stereo unspecified)
b. CC1=NN(c2ccc(OC(F)F)cc2)C(=O)C1C(=O)Nc1cccc(C(C)(F)F)c1 (stereo unspecified)
Request: So which one has the bigger IC50 here, a or b ? Reply briefly: the label of your chosen item.
Response: a
